Reported growth inhibition values for the following compounds.
Assay: inhibition of 3D7 malaria parasite growth – strain 3D7 (AID 2306);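 further: 0% = DMSO wells and 100% = chloroquine plus artemisinin control wells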
Conditions: P. falciparum 3D7 erythrocytic growth, LDH absorbance, 72 h; at 2 µM; stronger effect = higher value
Answer in %, number only, no unit symbol.

>>> recorded_result("CCNc1cc(C(=O)N[C@@H](Cc2ccccc2)[C@H](O)CN[C@H](C)c2ccccc2)cc(N2CCCC2=O)c1")
97

query: Give a short answer stating reported growth inhibition for CNCCCNc1ccnc2cc(Cl)ccc12 .
result: 101

* * *

Assay: inhibition of 3D7 malaria parasite growth – strain 3D7 (AID 2306);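 further: 0% = DMSO wells and 100% = chloroquine plus artemisinin control wells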
Details: P. falciparum 3D7 erythrocytic growth, LDH absorbance, 72 h; at 2 µM; stronger effect = higher value
ASSAY METRIC: growth inhibition (%)
Give the number; % is assumed, so skip it.

>>> recorded_result("CC(Cc1ccc(OCCN2CCN(c3cccc(Cl)c3)CC2)cc1)NCC(O)c1cccc(C(F)(F)F)c1 (stereo unspecified)")
99
>>> recorded_result("C=CCOC(=O)N1CCC(CNCc2ccc(-c3cccc(-c4nc5ccccc5[nH]4)c3)cc2)C1 (stereo unspecified)")
100
>>> recorded_result("O=C(Nc1cccc(C(F)(F)F)c1)c1ccc(S(=O)(=O)NC2CCN(CC3CCCCC3)C2)cc1 (stereo unspecified)")
92
>>> recorded_result("CC(C)NCc1ccc(-c2ccc(-c3nc4ccc(C(F)(F)F)cc4[nH]3)cc2)cc1")
100
>>> recorded_result("O=C(Nc1ccc(F)c(Cl)c1)c1cc([N+](=O)[O-])cc2cn[nH]c12")
100
>>> recorded_result("COc1cc(C)nc2ccc(NC(=O)COCC(=O)Nc3ccc4nc(C)cc(OC)c4c3)cc12")
100
>>> recorded_result("CCC[C@@H](/C=N/N(C)C(=O)OC(C)(C)C)NC(=O)[C@H](CC(C)C)NC(=O)c1cc2cccc(OC)c2o1")
88
>>> recorded_result("O=C(NCC1CCC(C(=O)NC2CCCc3ccccc32)CC1)c1ccc(O)c(-c2ccc(Cl)c(Cl)c2)c1 (stereo unspecified)")
93
>>> recorded_result("O=C(O)c1ccc2c(c1)N(C(=O)CNCc1ccc(F)cc1)CC(=O)N2CCCc1ccccc1")
95
>>> recorded_result("Cc1cccc2[nH]c(-c3ccc(-c4ccc(NC(=O)c5cncn5C)cc4)s3)nc12")
102

query: Quote growth inhibition reported for Cn1cnc(CCNC(=O)c2cccc(-c3cccc(-c4nc5ccc(C(F)(F)F)cc5[nH]4)c3)c2)c1 please.
result: 100

query: For the molecule O=C(NC1CCN(c2ccnc3ccccc23)C1)c1cccc(C(F)(F)F)c1 (stereo unspecified) , report growth inhibition.
result: 94

query: Assign growth inhibition to the following record: O=C(Nc1ccc([N+](=O)[O-])cc1Cl)c1cc2ccccc2cc1O
result: 94

query: State its growth inhibition for this molecule: COc1ccc2nccc([C@@H](O)CN3CCC(NC(=O)C(c4ccsc4)N4CCN(c5ccccc5OC)CC4)CC3)c2c1 (stereo partly specified)
result: 95

query: Quote growth inhibition reported for COc1ccc(C(=O)[C@H]2C[C@@H]2CN(C)CCC(O)c2ccc(Cl)c(Cl)c2)cc1 (stereo partly specified) please.
result: 94

query: Tell us which growth inhibition value is on record for Cc1[nH]c(C)c(-c2ccc(-c3ccccc3C(F)(F)F)nc2)c(=O)c1Br
result: 97

* * *

Test: antimalarial activity against Dd2 strain (AID 2302);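 further: 0% = DMSO untreated growth and 100% = chloroquine plus artemisinin killed control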
Conditions: P. falciparum Dd2 in RBCs, LDH growth readout, 72 h; at 2 µM; stronger effect = higher value
ASSAY METRIC: growth inhibition (%)
Number in %, nothing else.

In the examples that follow, each entry is paired with its recorded growth inhibition.
>>> recorded_result("CN1CCN(CC(=O)Nc2cccc(-c3cccc(-c4nc5ccc(C(F)(F)F)cc5[nH]4)c3)c2)CC1")
98
>>> recorded_result("CCCNCc1ccc(-c2ccc(CN(CCOC)C(=O)c3cscn3)cc2)nc1")
16

--- query ---
query: For the compound O=[N+]([O-])c1ccc2c(-c3ccccc3)c(-c3ccccc3)n(O)c2c1 , give its measured growth inhibition value.
result: 11
